# Tested on: BT-474
# Assay Details: drug sensitivity score (DSS), cell viability CellTiter-Glo; higher = more sensitive; extreme values may be limits of the assay
# Protocol Conditions: 72 h; shRNA: shPPFIA1_2
This section presents molecules with their documented drug sensitivity score values.
Lab book: enter the figure in DSS, no units written.

COc1ccc(-c2ccc3ncc4c(c3c2)n(-c2ccc(N3CCNCC3)c(C(F)(F)F)c2)c(=O)n4C)cn1 [NVP-BGT226] :: 11.3
CC(C)CC(=O)Nc1n[nH]c2c1CN(C(=O)C1CCN(C)CC1)C2(C)C :: 1.3
C#Cc1cccc(Nc2ncnc3cc(OCCOC)c(OCCOC)cc23)c1 [Erlotinib] :: 2.9
COc1cc2ncnc(Nc3ccc(F)c(Cl)c3)c2cc1OCCCN1CCOCC1 [Gefitinib] :: 9.1
CN(C)C/C=C/C(=O)Nc1cc2c(Nc3ccc(F)c(Cl)c3)ncnc2cc1O[C@H]1CCOC1 [Afatinib] :: 13.3

The reported value for CN[C@@H](C)C(=O)N[C@H]1CN(C(=O)CC(C)C)CC[C@H]2CC[C@@H](C(=O)NC(c3ccccc3)c3ccccc3)N2C1=O [AT-406] in terms of drug sensitivity score is 0

---

# Test system: UT-SCC-24A
# Assay Details: drug sensitivity score (DSS), cytotoxicity CellTox Green; higher = more cytotoxic; extreme values may be limits of the assay
# Protocol Conditions: 72 h; shRNA: shPPFIA1_2
Readout Name: drug sensitivity score (DSS)
Lab book: enter the figure in DSS, no units written.

Solved cases (3 shown):
Cc1cc([C@@H](C)Nc2ccccc2C(=O)O)c2nc(N3CCOCC3)cc(=O)n2c1 :: 1
Cn1c(=O)n(-c2ccc(C(C)(C)C#N)cc2)c2c3cc(-c4cnc5ccccc5c4)ccc3ncc21 :: 0.5
CN(C)C/C=C/C(=O)Nc1cc2c(Nc3ccc(F)c(Cl)c3)ncnc2cc1O[C@H]1CCOC1 :: 19.8

The reported drug sensitivity score value, UT-SCC-24A, for CC(=O)NCC(=O)N1[C@@H]2CC[C@H]1c1ccc(Nc3ncc(C(F)(F)F)c(NC4CCC4)n3)cc12 reads 3.9

The reported drug sensitivity score value, UT-SCC-24A, for COc1ccc(-c2ccc3ncc4c(c3c2)n(-c2ccc(N3CCNCC3)c(C(F)(F)F)c2)c(=O)n4C)cn1 reads 6.5

The reported drug sensitivity score value, UT-SCC-24A, for CCOc1ccn(-c2ccc(F)cc2)c(=O)c1C(=O)Nc1ccc(Oc2ccnc(N)c2Cl)c(F)c1 reads 0

The reported drug sensitivity score value, UT-SCC-24A, for CO[C@H]1C[C@@H]2CC[C@@H](C)[C@@](O)(O2)C(=O)C(=O)N2CCCC[C@H]2C(=O)O[C@H]([C@H](C)C[C@@H]2CC[C@@H](OC(=O)C(C)(CO)CO)[C@H](OC)C2)CC(=O)[C@H](C)/C=C(\C)[C@@H](O)[C@@H](OC)C(=O)[C@H](C)C[C@H](C)/C=C/C=C/C=C/1C reads 0

The reported drug sensitivity score value, UT-SCC-24A, for COc1cc(C(=O)NC2CCN(C)CC2)c(F)cc1Nc1ncc2c(n1)N(C1CCCC1)CC(F)(F)C(=O)N2C reads 0

The reported drug sensitivity score value, UT-SCC-24A, for O=C(NC[C@H](O)CO)c1ccncc1Nc1ccc(I)cc1F reads 23.5

The reported drug sensitivity score value, UT-SCC-24A, for CC(=O)O[C@@]12CO[C@@H]1C[C@H](O)[C@@]1(C)C(=O)[C@H](O)C3=C(C)[C@@H](OC(=O)[C@H](O)[C@@H](NC(=O)OC(C)(C)C)c4ccccc4)C[C@@](O)([C@@H](OC(=O)c4ccccc4)[C@H]21)C3(C)C reads 15.2

The reported drug sensitivity score value, UT-SCC-24A, for CC(=O)Nc1cccc(-n2c(=O)n(C3CC3)c(=O)c3c(Nc4ccc(I)cc4F)n(C)c(=O)c(C)c32)c1 reads 18.4

The reported drug sensitivity score value, UT-SCC-24A, for C[C@@H]1COC(Nc2ccc3ncnc(Nc4ccc(OCc5nccs5)c(Cl)c4)c3c2)=N1 reads 10.1

The reported drug sensitivity score value, UT-SCC-24A, for C#Cc1cccc(Nc2ncnc3cc(OCCOC)c(OCCOC)cc23)c1 reads 11.4

The reported drug sensitivity score value, UT-SCC-24A, for CO[C@H]1C[C@@H]2CC[C@@H](C)[C@@](O)(O2)C(=O)C(=O)N2CCCC[C@H]2C(=O)O[C@H]([C@H](C)C[C@@H]2CC[C@@H](OCCO)[C@H](OC)C2)CC(=O)[C@H](C)/C=C(\C)[C@@H](O)[C@@H](OC)C(=O)[C@H](C)C[C@H](C)/C=C/C=C/C=C/1C reads 0

The reported drug sensitivity score value, UT-SCC-24A, for COc1cc2ncnc(Nc3ccc(F)c(Cl)c3)c2cc1OCCCN1CCOCC1 reads 17.3

The reported drug sensitivity score value, UT-SCC-24A, for CN[C@@H](C)C(=O)N[C@H](C(=O)N1CCC[C@H]1c1nc(C(=O)c2ccc(F)cc2)cs1)C1CCCCC1 reads 12.8

The reported drug sensitivity score value, UT-SCC-24A, for CC(C)CC(=O)Nc1n[nH]c2c1CN(C(=O)C1CCN(C)CC1)C2(C)C reads 1.4

The reported drug sensitivity score value, UT-SCC-24A, for O=C(NOCCO)c1ccc2cncn2c1Nc1ccc(I)cc1F reads 0

The reported drug sensitivity score value, UT-SCC-24A, for CN[C@@H](C)C(=O)N[C@H]1CN(C(=O)CC(C)C)CC[C@H]2CC[C@@H](C(=O)NC(c3ccccc3)c3ccccc3)N2C1=O reads 13.5

The reported drug sensitivity score value, UT-SCC-24A, for CCC1=C[C@@H]2CN(C1)Cc1c([nH]c3ccccc13)[C@@](C(=O)OC)(c1cc3c(cc1OC)N(C)[C@H]1[C@@](O)(C(=O)OC)[C@H](OC(C)=O)[C@]4(CC)C=CCN5CC[C@]31[C@@H]54)C2 reads 8.4

The reported drug sensitivity score value, UT-SCC-24A, for Cc1cc(C(=O)NOCCO)c(Nc2ccc(I)cc2F)n(C)c1=O reads 27.6

The reported drug sensitivity score value, UT-SCC-24A, for O=C(Nc1ccc2[nH]nc(-c3ccncc3)c2c1)[C@@H]1CCN(CC(=O)N2CCN(c3ccc(-c4ncccn4)cc3)CC2)C1 reads 21.1

---

# Test system: UT-SCC-24A
# Assay Details: drug sensitivity score (DSS), cell viability CellTiter-Glo; higher = more sensitive; extreme values may be limits of the assay
# Protocol Conditions: 72 h; shRNA: shScramble
This section presents molecules with their documented drug sensitivity score values.
Lab book: enter the figure in DSS, no units written.

The reported value for CCOc1ccn(-c2ccc(F)cc2)c(=O)c1C(=O)Nc1ccc(Oc2ccnc(N)c2Cl)c(F)c1 in terms of drug sensitivity score is 0

The reported value for Cc1cc(C(=O)NOCCO)c(Nc2ccc(I)cc2F)n(C)c1=O in terms of drug sensitivity score is 23.9

The reported value for O=C(Nc1ccc2[nH]nc(-c3ccncc3)c2c1)[C@@H]1CCN(CC(=O)N2CCN(c3ccc(-c4ncccn4)cc3)CC2)C1 in terms of drug sensitivity score is 17.3

---

This section presents compounds with their documented drug sensitivity score values.
# Tested on: BT-474
# Assay Details: drug sensitivity score (DSS), cell viability CellTiter-Glo; higher = more sensitive; extreme values may be limits of the assay
# Protocol Conditions: 72 h; shRNA: shScramble
Lab book: enter the figure in DSS, no units written.

Solved cases (3 shown):
C[C@@H]1COC(Nc2ccc3ncnc(Nc4ccc(OCc5nccs5)c(Cl)c4)c3c2)=N1 :: 10.7
Cc1cc([C@@H](C)Nc2ccccc2C(=O)O)c2nc(N3CCOCC3)cc(=O)n2c1 :: 2.1
CCOc1ccn(-c2ccc(F)cc2)c(=O)c1C(=O)Nc1ccc(Oc2ccnc(N)c2Cl)c(F)c1 :: 0

Shifting focus to the compound that follows.
The reported drug sensitivity score value, BT-474, for O=C(Nc1ccc2[nH]nc(-c3ccncc3)c2c1)[C@@H]1CCN(CC(=O)N2CCN(c3ccc(-c4ncccn4)cc3)CC2)C1 reads 0

---

This section presents compounds with their documented log10 drug sensitivity score values.
# Test system: BT-474
# Assay Details: drug sensitivity score (DSS), cell viability CellTiter-Glo; higher = more sensitive; extreme values may be limits of the assay
# Protocol Conditions: 72 h; shRNA: shPPFIA1_2
Please keep in mind that the values are log10 of drug sensitivity score expressed in DSS.

Solved cases (4 shown):
O=C(NC[C@H](O)CO)c1ccncc1Nc1ccc(I)cc1F :: -0.30
CC(=O)O[C@@]12CO[C@@H]1C[C@H](O)[C@@]1(C)C(=O)[C@H](O)C3=C(C)[C@@H](OC(=O)[C@H](O)[C@@H](NC(=O)OC(C)(C)C)c4ccccc4)C[C@@](O)([C@@H](OC(=O)c4ccccc4)[C@H]21)C3(C)C :: 1.23
CCC1=C[C@@H]2CN(C1)Cc1c([nH]c3ccccc13)[C@@](C(=O)OC)(c1cc3c(cc1OC)N(C)[C@H]1[C@@](O)(C(=O)OC)[C@H](OC(C)=O)[C@]4(CC)C=CCN5CC[C@]31[C@@H]54)C2 :: 1.00
CO[C@H]1C[C@@H]2CC[C@@H](C)[C@@](O)(O2)C(=O)C(=O)N2CCCC[C@H]2C(=O)O[C@H]([C@H](C)C[C@@H]2CC[C@@H](OC(=O)C(C)(CO)CO)[C@H](OC)C2)CC(=O)[C@H](C)/C=C(\C)[C@@H](O)[C@@H](OC)C(=O)[C@H](C)C[C@H](C)/C=C/C=C/C=C/1C :: 0.79

Shifting focus to the compound that follows.
The reported value for Cn1c(=O)n(-c2ccc(C(C)(C)C#N)cc2)c2c3cc(-c4cnc5ccccc5c4)ccc3ncc21 in terms of log10 drug sensitivity score is 0.87
